These measurements were taken from ChEMBL document CHEMBL3272030.

Target: Bacterial DNA-directed RNA polymerase (Bacteria) (UniProt P0A8V2+P0A7Z4+P0A8T7+P0A800)
Sequence (P0A7Z4 whole entry partner): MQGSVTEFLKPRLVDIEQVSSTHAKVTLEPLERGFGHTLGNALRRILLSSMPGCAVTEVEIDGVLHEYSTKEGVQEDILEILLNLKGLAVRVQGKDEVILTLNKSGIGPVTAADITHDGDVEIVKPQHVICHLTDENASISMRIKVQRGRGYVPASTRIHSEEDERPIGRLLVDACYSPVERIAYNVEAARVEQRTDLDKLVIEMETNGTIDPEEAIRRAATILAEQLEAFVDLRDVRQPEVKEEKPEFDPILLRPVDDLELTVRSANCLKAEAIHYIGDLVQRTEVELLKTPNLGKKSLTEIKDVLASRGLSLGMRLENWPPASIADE
Sequence (P0A800 2-91 partner limits assumed): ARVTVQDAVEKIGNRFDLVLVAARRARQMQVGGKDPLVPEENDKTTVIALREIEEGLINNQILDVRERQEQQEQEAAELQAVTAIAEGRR
Sequence (P0A8T7 whole entry partner): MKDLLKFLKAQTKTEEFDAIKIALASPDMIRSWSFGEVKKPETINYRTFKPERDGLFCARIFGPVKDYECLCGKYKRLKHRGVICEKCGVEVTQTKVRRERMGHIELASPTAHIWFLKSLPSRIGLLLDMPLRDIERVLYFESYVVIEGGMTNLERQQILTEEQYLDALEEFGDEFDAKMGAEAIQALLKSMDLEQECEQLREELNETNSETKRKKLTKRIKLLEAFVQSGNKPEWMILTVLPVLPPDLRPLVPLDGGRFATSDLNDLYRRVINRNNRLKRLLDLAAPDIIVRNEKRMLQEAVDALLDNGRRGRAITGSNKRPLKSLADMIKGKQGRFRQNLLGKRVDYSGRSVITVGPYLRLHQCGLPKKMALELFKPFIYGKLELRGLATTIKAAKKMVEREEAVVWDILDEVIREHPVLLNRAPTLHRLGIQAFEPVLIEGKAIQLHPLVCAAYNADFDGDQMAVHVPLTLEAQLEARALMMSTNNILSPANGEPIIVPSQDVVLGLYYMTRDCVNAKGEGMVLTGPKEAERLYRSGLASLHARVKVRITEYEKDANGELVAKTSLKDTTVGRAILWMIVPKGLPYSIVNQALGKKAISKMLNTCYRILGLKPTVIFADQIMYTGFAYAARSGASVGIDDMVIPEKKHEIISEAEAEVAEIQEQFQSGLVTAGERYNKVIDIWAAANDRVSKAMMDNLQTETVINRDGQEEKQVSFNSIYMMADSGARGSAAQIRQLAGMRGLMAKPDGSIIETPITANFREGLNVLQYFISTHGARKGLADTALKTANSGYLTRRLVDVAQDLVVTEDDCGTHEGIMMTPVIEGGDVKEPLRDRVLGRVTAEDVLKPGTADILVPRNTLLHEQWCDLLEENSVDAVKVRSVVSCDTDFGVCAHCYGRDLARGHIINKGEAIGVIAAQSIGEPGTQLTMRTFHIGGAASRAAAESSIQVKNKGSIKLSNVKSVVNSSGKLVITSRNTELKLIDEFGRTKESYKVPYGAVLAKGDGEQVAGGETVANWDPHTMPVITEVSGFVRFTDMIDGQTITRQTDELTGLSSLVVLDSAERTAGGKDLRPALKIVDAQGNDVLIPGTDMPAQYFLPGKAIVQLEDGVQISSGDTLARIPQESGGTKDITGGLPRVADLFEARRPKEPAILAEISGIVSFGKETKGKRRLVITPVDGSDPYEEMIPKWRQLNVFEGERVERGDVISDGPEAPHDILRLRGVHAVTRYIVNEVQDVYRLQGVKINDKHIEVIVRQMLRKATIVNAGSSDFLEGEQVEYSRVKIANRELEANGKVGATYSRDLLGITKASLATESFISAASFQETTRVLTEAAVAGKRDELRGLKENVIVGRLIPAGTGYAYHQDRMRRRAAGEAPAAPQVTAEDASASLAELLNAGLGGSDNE
Sequence (P0A8V2 whole entry): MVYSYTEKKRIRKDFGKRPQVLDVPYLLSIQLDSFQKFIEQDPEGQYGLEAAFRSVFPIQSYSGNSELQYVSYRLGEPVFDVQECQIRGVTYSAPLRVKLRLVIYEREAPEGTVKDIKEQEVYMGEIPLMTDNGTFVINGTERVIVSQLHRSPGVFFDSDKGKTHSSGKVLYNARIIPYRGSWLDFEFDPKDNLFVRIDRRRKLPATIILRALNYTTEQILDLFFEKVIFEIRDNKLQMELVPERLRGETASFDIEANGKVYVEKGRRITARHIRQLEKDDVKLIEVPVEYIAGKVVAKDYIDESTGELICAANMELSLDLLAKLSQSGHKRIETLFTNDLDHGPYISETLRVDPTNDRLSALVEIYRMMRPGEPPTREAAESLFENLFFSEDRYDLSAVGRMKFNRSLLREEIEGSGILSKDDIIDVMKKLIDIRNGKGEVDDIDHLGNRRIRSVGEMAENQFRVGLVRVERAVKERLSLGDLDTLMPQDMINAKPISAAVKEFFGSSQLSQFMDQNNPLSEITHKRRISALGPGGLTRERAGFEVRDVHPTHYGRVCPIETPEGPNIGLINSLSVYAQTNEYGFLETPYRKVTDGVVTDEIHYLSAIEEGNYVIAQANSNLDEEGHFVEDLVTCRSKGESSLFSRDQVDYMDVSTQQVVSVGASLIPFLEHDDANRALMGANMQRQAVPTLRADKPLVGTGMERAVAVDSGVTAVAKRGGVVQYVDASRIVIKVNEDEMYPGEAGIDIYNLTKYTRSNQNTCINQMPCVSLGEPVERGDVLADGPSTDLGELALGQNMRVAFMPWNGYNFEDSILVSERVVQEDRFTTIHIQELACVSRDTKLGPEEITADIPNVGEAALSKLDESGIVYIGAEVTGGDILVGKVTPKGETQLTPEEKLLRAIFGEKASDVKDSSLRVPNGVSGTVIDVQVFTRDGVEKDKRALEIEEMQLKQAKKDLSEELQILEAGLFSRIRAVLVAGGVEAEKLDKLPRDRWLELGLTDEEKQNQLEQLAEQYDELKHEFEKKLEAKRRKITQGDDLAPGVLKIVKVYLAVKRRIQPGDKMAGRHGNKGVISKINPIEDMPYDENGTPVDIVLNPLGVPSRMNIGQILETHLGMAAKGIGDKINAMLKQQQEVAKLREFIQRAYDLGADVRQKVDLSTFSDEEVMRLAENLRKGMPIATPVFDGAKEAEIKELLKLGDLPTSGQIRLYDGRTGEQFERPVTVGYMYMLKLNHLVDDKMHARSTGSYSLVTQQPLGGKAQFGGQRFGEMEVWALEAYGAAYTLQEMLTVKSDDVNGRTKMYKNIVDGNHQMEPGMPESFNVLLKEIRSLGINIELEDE
Test: Inhibition of Escherichia coli DNA-primed RNA polymerase activity using [8-14C]ATP at 50 ug/ml by scintillation counting
Format: protein-complex assay
Parameters: scale not given: the % may be the effect or the level left
Experimental readout: Activity (%)
Numbers only here, please. The scale is %.

Known results for compounds:
Compound: CC1(C)CC(Nc2c3ccccc3nc3ccccc23)CC(C)(C)N1[O]
Target of assay: Bacterial DNA-directed RNA polymerase (Bacteria) (UniProt P0A8V2+P0A7Z4+P0A8T7+P0A800)
Activity / %: 77
//
Compound: CC1(C)CC(NCCCNc2c3ccccc3nc3ccccc23)CC(C)(C)N1[O]
Target of assay: Bacterial DNA-directed RNA polymerase (Bacteria) (UniProt P0A8V2+P0A7Z4+P0A8T7+P0A800)
Activity / %: 42
//
Compound: Nc1c2ccccc2nc2ccccc12
Target of assay: Bacterial DNA-directed RNA polymerase (Bacteria) (UniProt P0A8V2+P0A7Z4+P0A8T7+P0A800)
Activity / %: 31

Consider the additional compound presented here.
Q) What measured Activity goes with CC1(C)CC(CNc2c3ccccc3nc3ccccc23)C(C)(C)N1[O] (centres undefined) ?
A) 70
